Target: M-phase inducer phosphatase 2 (Homo sapiens) (UniProt P30305)
Sequence (P30305 whole entry): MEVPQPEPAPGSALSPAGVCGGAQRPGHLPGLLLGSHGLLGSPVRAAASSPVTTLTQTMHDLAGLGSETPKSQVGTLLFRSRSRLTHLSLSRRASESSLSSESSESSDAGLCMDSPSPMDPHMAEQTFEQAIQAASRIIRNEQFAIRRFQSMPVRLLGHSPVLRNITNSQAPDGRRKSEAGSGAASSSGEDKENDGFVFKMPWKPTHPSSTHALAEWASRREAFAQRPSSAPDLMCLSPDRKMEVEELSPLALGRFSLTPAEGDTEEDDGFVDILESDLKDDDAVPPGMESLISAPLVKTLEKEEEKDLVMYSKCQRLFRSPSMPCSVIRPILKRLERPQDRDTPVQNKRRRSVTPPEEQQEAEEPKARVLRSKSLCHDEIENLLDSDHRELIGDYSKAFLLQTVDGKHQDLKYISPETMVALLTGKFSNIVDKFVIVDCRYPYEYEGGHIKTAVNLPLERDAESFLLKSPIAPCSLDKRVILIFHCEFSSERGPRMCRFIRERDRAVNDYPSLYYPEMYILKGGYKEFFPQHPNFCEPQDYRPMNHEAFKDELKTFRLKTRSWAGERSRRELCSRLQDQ
Assay: Percent inhibition of cell division cycle 25B at 50 uM
Recorded Endpoint: inhibition (%)

Example compounds with recorded inhibition:
Line Notation: O=C1C=C(O)C(=O)C(c2c[nH]c3c(F)cccc23)=C1O
Tested System: M-phase inducer phosphatase 2 (Homo sapiens) (UniProt P30305)
inhibition (%): 67
--
Line Notation: O=C1C=C(O)C(=O)C(c2c[nH]c3cccc(OCc4ccccc4)c23)=C1O
Tested System: M-phase inducer phosphatase 2 (Homo sapiens) (UniProt P30305)
inhibition (%): 0
--
Line Notation: CCc1[nH]c2ccccc2c1C1=C(O)C(O)=CC(=O)C1=O
Tested System: M-phase inducer phosphatase 2 (Homo sapiens) (UniProt P30305)
inhibition (%): 36
--
Line Notation: Cc1ccc2[nH]cc(C3=C(O)C(O)=CC(=O)C3=O)c2c1
Tested System: M-phase inducer phosphatase 2 (Homo sapiens) (UniProt P30305)
inhibition (%): 61
--
Line Notation: Cc1ccc2c(C3=C(O)C(O)=CC(=O)C3=O)c[nH]c2c1C
Tested System: M-phase inducer phosphatase 2 (Homo sapiens) (UniProt P30305)
inhibition (%): 32
--
Line Notation: O=C1C=C(O)C(=O)C(c2c[nH]c3cccc(Br)c23)=C1O
Tested System: M-phase inducer phosphatase 2 (Homo sapiens) (UniProt P30305)
inhibition (%): 6
--
Line Notation: O=C1C=C(O)C(=O)C(c2c[nH]c3cc(F)ccc23)=C1O
Tested System: M-phase inducer phosphatase 2 (Homo sapiens) (UniProt P30305)
inhibition (%): 90
--
Line Notation: CCCc1cccc2c(C3=C(O)C(O)=CC(=O)C3=O)c[nH]c12
Tested System: M-phase inducer phosphatase 2 (Homo sapiens) (UniProt P30305)
inhibition (%): 23
--
Line Notation: CC(C)(C)c1[nH]c2ccccc2c1C1=C(O)C(O)=CC(=O)C1=O
Tested System: M-phase inducer phosphatase 2 (Homo sapiens) (UniProt P30305)
inhibition (%): 11

a. Cc1[nH]c2ccccc2c1C1=C(O)C(O)=CC(=O)C1=O
b. Cc1ccc2c(C3=C(O)C(O)=CC(=O)C3=O)c[nH]c2c1
Task: Field: lower recorded inhibition (choose a or b ) Please indicate the selected item by its label.
Output: a
(a: 9%, b: 16%)

###

Target: M-phase inducer phosphatase 2 (Homo sapiens, UniProt P30305, R496L)
Sequence (P30305 whole entry R496L): as the sequence (P30305 whole entry) above, with R496L counted along it
Experiment: Inhibitory concentration of compound against mutant R482L of Cell division cycle 25B was determined
Recorded Endpoint: pIC50
Just so you know, pIC50 here is -log10 of the concentration in molar units; reply with that number alone.

Task: // query pIC50 value for entry CC(C)=CCc1cccc2c(C3=C(O)C(O)=CC(=O)C3=O)c[nH]c12
Output: 4.40

###

Biological target: M-phase inducer phosphatase 2 (Homo sapiens)
Assay: Inhibitory concentration of compound against truncated mutant of Cdc25B phosphatase was determined
Recorded Endpoint: pIC50
Just so you know, pIC50 here is -log10 of the concentration in molar units; reply with that number alone.

Task: // query pIC50 value for entry O=C1C=C(O)C(=O)C(c2c[nH]c3ccccc23)=C1O
Output: 4.47

###

Molecular target: M-phase inducer phosphatase 3 (Homo sapiens) (UniProt P30307)
Sequence (P30307 whole entry): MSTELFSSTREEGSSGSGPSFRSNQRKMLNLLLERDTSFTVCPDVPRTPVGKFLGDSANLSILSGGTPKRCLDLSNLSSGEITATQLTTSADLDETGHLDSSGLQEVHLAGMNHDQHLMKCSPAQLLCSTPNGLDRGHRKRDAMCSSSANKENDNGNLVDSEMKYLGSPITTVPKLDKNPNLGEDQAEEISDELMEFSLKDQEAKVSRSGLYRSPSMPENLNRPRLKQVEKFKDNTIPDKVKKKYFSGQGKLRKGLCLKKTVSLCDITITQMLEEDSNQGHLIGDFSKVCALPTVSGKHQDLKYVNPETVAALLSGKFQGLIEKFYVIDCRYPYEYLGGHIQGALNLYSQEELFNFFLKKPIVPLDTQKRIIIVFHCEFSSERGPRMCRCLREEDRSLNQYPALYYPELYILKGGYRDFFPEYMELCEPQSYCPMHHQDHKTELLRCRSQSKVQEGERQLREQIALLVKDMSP
Assay: Percent inhibition of cell division cycle 25 degree C at 50 uM
Recorded Endpoint: inhibition (%)

Example compounds with recorded inhibition:
Line Notation: COc1cccc2[nH]cc(C3=C(O)C(O)=CC(=O)C3=O)c12
Result Units: %
inhibition: 19
--
Line Notation: COc1ccc2[nH]c(C)c(C3=C(O)C(O)=CC(=O)C3=O)c2c1
Result Units: %
inhibition: 31
--
Line Notation: O=C1C=C(O)C(=O)C(c2c[nH]c3cccc(F)c23)=C1O
Result Units: %
inhibition: 0

1. O=C1C=C(O)C(=O)C(c2c[nH]c3c(F)cccc23)=C1O
2. CC1(c2[nH]c3ccccc3c2C2=C(O)C(O)=CC(=O)C2=O)CC1
3. O=C1C=C(O)C(=O)C(c2c(-c3ccccc3)[nH]c3ccccc23)=C1O
Task: Please list these compounds in decreasing order of inhibition. Submit the labels in the order that the ranking request calls for.
Output: 1, 3, 2

Data origin: ChEMBL document CHEMBL1145801
